Molecular target: Neurotensin receptor type 2 (Homo sapiens, UniProt O95665)
Sequence (O95665 whole entry): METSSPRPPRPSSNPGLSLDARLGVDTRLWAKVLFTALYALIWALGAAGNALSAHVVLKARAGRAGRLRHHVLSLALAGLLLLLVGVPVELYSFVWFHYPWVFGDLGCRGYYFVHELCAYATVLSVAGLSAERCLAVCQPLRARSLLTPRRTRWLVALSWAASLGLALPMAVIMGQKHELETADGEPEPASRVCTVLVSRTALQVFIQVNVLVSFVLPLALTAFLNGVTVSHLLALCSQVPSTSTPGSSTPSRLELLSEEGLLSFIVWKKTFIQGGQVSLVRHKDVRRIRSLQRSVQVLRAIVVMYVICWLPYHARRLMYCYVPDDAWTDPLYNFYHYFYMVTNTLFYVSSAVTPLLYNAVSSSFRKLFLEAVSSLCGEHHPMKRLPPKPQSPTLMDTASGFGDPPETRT
Test: Displacement of [125I]-neurotensin from human recombinant NTS2 stably expressed in human 1321N1 cell membranes incubated for 60 mins by gamma counter method
Square brackets hold non-standard residues; d marks the D form. Peptide text beside a SMILES is read from it. Dmt = Cc1cc(O)cc(C)c1C[C@H](N)C(=O)O; Tle = CC(C)(C)[C@H](N)C(=O)O
property.name: pKi
Remember the convention: pKi equals -log10 of concentration in molar.

Cc1cc(O)cc(C)c1C[C@H](N)C(=O)N[C@H](CCCCN)C(=O)N[C@@H](Cc1ccccc1)C(=O)N[C@@H](Cc1ccccc1)C(=O)N[C@@H](CCCCN)C(=O)N[C@@H](CCCCN)C(=O)N1CCC[C@H]1C(=O)N[C@@H](Cc1ccccc1)C(=O)N[C@H](C(=O)N[C@@H](CC(C)C)C(=O)O)C(C)(C)C (H-[Dmt][dK]FFKKPF[Tle]L-OH) ... 7.53

Then this molecule:
Query `Cc1cc(O)cc(C)c1C[C@H](NC(=O)[C@@H]1CCCN1C(=O)[C@H](CCCNC(=N)N)NC(=O)C[C@@H](N)CCCNC(=N)N)C(=O)N[C@H](C(=O)N[C@@H](CC(C)C)C(=O)O)C(C)(C)C` yields pKi of 9.96

* * *

Biological target: Mu-type opioid receptor (Homo sapiens)
Sequence (P35372 whole entry): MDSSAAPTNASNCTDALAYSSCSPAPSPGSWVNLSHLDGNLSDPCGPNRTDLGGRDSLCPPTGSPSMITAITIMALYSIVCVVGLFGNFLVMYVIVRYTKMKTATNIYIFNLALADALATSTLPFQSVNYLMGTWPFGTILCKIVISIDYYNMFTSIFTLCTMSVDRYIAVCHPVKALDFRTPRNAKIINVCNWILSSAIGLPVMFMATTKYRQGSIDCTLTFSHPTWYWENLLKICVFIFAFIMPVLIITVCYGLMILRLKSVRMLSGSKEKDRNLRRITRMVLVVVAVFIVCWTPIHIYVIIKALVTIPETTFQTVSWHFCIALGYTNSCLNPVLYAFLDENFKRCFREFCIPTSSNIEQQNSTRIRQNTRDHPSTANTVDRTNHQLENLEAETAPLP
Assay: Agonist activity at human MOR expressed in CHO cell membranes assessed as stimulation of [35S]-GTPgammaS binding incubated for 1 hr by liquid scintillation counting assay relative to DAMGO
Format: functional
Conditions: filed as agonist, time 60.0 min
Numbered stars: 1 amine (or outer) side, 2 acyl side, 3 side chain; on linkers, the order of the positions; unused ones are H or OH. Square brackets hold non-standard residues; d marks the D form. Peptide text beside a SMILES is read from it. X1 = O=C1[C@@H](N[*:1])Cc2ccccc2CN1CCC(=O)[*:2]; X2 = O=C([C@@H]1Cc2cc(O)ccc2CN1[*:1])[*:2]; Dmt = Cc1cc(O)cc(C)c1C[C@H](N)C(=O)O; Tle = CC(C)(C)[C@H](N)C(=O)O; β3hK = NCCCC[C@H](N)CC(=O)O
property.name: Emax (%)
Supply the numeric figure in %, leaving out any unit text.

Below are worked cases with known answers.
Cc1cc(O)cc(C)c1C[C@H](N)C(=O)N[C@H](CCCNC(=N)N)C(=O)N[C@H]1Cc2ccccc2CN(CCC(=O)N[C@@H](CCCCN)C(=O)N[C@@H](CCCCN)C(=O)N2CCC[C@H]2C(=O)N[C@@H](Cc2ccc(O)cc2)C(=O)N[C@H](C(=O)N[C@@H](CC(C)C)C(=O)O)C(C)(C)C)C1=O (H-[Dmt][dR][X1]KKPY[Tle]L-OH) ... 99
Cc1cc(O)cc(C)c1C[C@H](N)C(=O)N[C@H](CCCNC(=N)N)C(=O)N[C@H]1Cc2ccccc2CN(CCC(=O)N[C@@H](CCCCN)C(=O)N[C@@H](CCCCN)C(=O)N2CCC[C@H]2C(=O)N2Cc3ccc(O)cc3C[C@H]2C(=O)N[C@H](C(=O)N[C@@H](CC(C)C)C(=O)O)C(C)(C)C)C1=O (H-[Dmt][dR][X1]KKP[X2][Tle]L-OH) ... 94
Cc1cc(O)cc(C)c1C[C@H](NC(=O)[C@@H]1CCCN1C(=O)[C@H](CCCNC(=N)N)NC(=O)[C@H](CCCNC(=N)N)NC(=O)CCN1Cc2ccccc2C[C@H](NC(=O)[C@@H](CCCNC(=N)N)NC(=O)[C@@H](N)Cc2c(C)cc(O)cc2C)C1=O)C(=O)N[C@H](C(=O)N[C@@H](CC(C)C)C(=O)O)C(C)(C)C (H-[Dmt][dR][X1]RRP[Dmt][Tle]L-OH) ... 96

Then this molecule:
Query Cc1cc(O)cc(C)c1C[C@H](NC(=O)[C@@H]1CCCN1C(=O)[C@H](CCCCN)NC(=O)C[C@H](CCCCN)NC(=O)CCN1Cc2ccccc2C[C@H](NC(=O)[C@@H](CCCNC(=N)N)NC(=O)[C@@H](N)Cc2c(C)cc(O)cc2C)C1=O)C(=O)N[C@H](C(=O)N[C@@H](CC(C)C)C(=O)O)C(C)(C)C (H-[Dmt][dR][X1][β3hK]KP[Dmt][Tle]L-OH) yields Emax of 97

* * *

Target: Kappa-type opioid receptor (Homo sapiens, UniProt P41145)
Sequence (P41145 whole entry): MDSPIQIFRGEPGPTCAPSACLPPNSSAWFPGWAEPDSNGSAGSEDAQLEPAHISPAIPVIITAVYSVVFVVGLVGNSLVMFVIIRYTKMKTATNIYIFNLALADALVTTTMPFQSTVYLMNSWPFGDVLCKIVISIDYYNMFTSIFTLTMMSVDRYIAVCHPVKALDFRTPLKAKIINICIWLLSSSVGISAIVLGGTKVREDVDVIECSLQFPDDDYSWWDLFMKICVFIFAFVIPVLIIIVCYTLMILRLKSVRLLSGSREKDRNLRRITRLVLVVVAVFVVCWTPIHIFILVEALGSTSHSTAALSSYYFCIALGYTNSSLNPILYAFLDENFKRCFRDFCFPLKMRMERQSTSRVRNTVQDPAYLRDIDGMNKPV
Test: Displacement of [3H]-U69593 from recombinant human kappa opioid receptor expressed in CHO cell membrane incubated for 60 mins by liquid scintillation counting method
Numbered stars: 1 amine (or outer) side, 2 acyl side, 3 side chain; on linkers, the order of the positions; unused ones are H or OH. Square brackets hold non-standard residues; d marks the D form. Peptide text beside a SMILES is read from it. X1 = O=C1[C@@H](N[*:1])Cc2ccccc2CN1CCC(=O)[*:2]; Dmt = Cc1cc(O)cc(C)c1C[C@H](N)C(=O)O; β3hR = N=C(N)NCCC[C@H](N)CC(=O)O; Tle = CC(C)(C)[C@H](N)C(=O)O; β3hK = NCCCC[C@H](N)CC(=O)O
property.name: pKi
Remember the convention: pKi equals -log10 of concentration in molar.

Below are worked cases with known answers.
Cc1cc(O)cc(C)c1C[C@H](NC(=O)[C@@H]1CCCN1C(=O)[C@H](CCCCN)NC(=O)C[C@H](CCCCN)NC(=O)CCN1Cc2ccccc2C[C@H](NC(=O)[C@@H](CCCNC(=N)N)NC(=O)[C@@H](N)Cc2c(C)cc(O)cc2C)C1=O)C(=O)N[C@H](C(=O)N[C@@H](CC(C)C)C(=O)O)C(C)(C)C (H-[Dmt][dR][X1][β3hK]KP[Dmt][Tle]L-OH) ... 6.68
Cc1cc(O)cc(C)c1C[C@H](NC(=O)[C@@H]1CCCN1C(=O)[C@H](CCCNC(=N)N)NC(=O)C[C@H](CCCNC(=N)N)NC(=O)CCN1Cc2ccccc2C[C@H](NC(=O)[C@@H](CCCNC(=N)N)NC(=O)[C@@H](N)Cc2c(C)cc(O)cc2C)C1=O)C(=O)N[C@H](C(=O)N[C@@H](CC(C)C)C(=O)O)C(C)(C)C (H-[Dmt][dR][X1][β3hR]RP[Dmt][Tle]L-OH) ... 7.55

Then this compound:
// compound Cc1cc(O)cc(C)c1C[C@H](N)C(=O)N[C@H](CCCNC(=N)N)C(=O)N[C@H]1Cc2ccccc2CN(CCC(=O)N[C@@H](CCCCN)C(=O)N[C@@H](CCCCN)C(=O)N2CCC[C@H]2C(=O)N[C@@H](Cc2ccc(O)cc2)C(=O)N[C@H](C(=O)N[C@@H](CC(C)C)C(=O)O)C(C)(C)C)C1=O (H-[Dmt][dR][X1]KKPY[Tle]L-OH) , assay Kappa-type opioid receptor (Homo sapiens, UniProt P41145), pKi value: 6.70

* * *

Entries annotated with measured Emax
Biological target: Delta-type opioid receptor (Homo sapiens, UniProt P41143)
Sequence (P41143 whole entry): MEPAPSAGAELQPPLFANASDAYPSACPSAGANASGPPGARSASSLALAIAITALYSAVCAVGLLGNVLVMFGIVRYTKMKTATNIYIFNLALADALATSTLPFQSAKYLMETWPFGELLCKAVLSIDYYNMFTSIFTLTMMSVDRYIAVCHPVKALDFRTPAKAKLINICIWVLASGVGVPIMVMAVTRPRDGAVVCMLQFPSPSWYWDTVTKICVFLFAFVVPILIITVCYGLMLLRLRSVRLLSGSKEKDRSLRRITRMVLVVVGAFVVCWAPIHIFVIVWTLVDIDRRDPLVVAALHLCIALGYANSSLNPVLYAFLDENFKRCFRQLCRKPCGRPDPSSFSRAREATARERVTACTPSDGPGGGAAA
Assay: Agonist activity at human DOR stably expressed in CHO cell membranes assessed as stimulation of [35S]-GTPgammaS binding incubated for 1 hr by liquid scintillation counting assay relative to DPDPE
Type: functional
Details: filed as agonist, time 60.0 min
Numbered stars: 1 amine (or outer) side, 2 acyl side, 3 side chain; on linkers, the order of the positions; unused ones are H or OH. Square brackets hold non-standard residues; d marks the D form. Peptide text beside a SMILES is read from it. X1 = O=C1[C@@H](N[*:1])Cc2ccccc2CN1CCC(=O)[*:2]; Dmt = Cc1cc(O)cc(C)c1C[C@H](N)C(=O)O; mTyr = N[C@@H](Cc1cccc(O)c1)C(=O)O; Tle = CC(C)(C)[C@H](N)C(=O)O
Reply with the number and its unit after it.

Cc1cc(O)cc(C)c1C[C@H](N)C(=O)N[C@H](CCCNC(=N)N)C(=O)N[C@H]1Cc2ccccc2CN(CCC(=O)N[C@@H](CCCNC(=N)N)C(=O)N[C@@H](CCCNC(=N)N)C(=O)N2CCC[C@H]2C(=O)N[C@@H](Cc2cccc(O)c2)C(=O)N[C@H](C(=O)N[C@@H](CC(C)C)C(=O)O)C(C)(C)C)C1=O (H-[Dmt][dR][X1]RRP[mTyr][Tle]L-OH) ... 110%
Cc1cc(O)cc(C)c1C[C@H](N)C(=O)N[C@H](CCCNC(=N)N)C(=O)N[C@H]1Cc2ccccc2CN(CCC(=O)N[C@@H](CCCNC(=N)N)C(=O)N[C@@H](CCCNC(=N)N)C(=O)N2CCC[C@H]2C(=O)N[C@@H](Cc2ccc(O)cc2)C(=O)N[C@H](C(=O)N[C@@H](CC(C)C)C(=O)O)C(C)(C)C)C1=O (H-[Dmt][dR][X1]RRPY[Tle]L-OH) ... 106%

Then this molecule:
Query Cc1cc(O)cc(C)c1C[C@H](N)C(=O)N[C@H](CCCNC(=N)N)C(=O)N[C@H]1Cc2ccccc2CN(CCC(=O)N[C@@H](CCCCN)C(=O)N[C@@H](CCCCN)C(=O)N2CCC[C@H]2C(=O)N[C@@H](Cc2ccc(O)cc2)C(=O)N[C@H](C(=O)N[C@@H](CC(C)C)C(=O)O)C(C)(C)C)C1=O (H-[Dmt][dR][X1]KKPY[Tle]L-OH) yields Emax of 87%
